Selectivity index (SI) values for the molecules below.
test system: MS; test: MTT cell viability assay, MS; assay type: cell-based, human; conditions: ratio of IC50 values healthy (HEK293) / MS

- molecule: "COC(=O)[C@]12CC[C@@H](C(C)C)[C@@H]1[C@H]1CC[C@@H]3[C@@](C)(CCC#N)[C@H](C(=O)C(Br)Br)CC[C@@]3(C)[C@]1(C)CC2"
  studyTarget: "MS"
  valueComparator: "="
  Selectivity index (SI): 0.70
- molecule: "CC(C)C1CC[C@]2(CO)CC[C@]3(C)C(CCC4[C@@]5(C)CC(C#N)=CC(=O)C5CC[C@]43C)C12 (some centres unmarked)"
  studyTarget: "MS"
  valueComparator: "="
  Selectivity index (SI): 1.13
- molecule: "COC(=O)[C@]12CCC(C(C)C)C1C1CCC3[C@@]4(C)C[C@@H](C#N)C[C@H](O)C4CC[C@@]3(C)[C@]1(C)CC2 (some centres unmarked)"
  studyTarget: "MS"
  valueComparator: "="
  Selectivity index (SI): 1.56
- molecule: "COC(=O)[C@]12CCC(C(C)C)C1C1CCC3[C@@](C)(CCC#N)C(C(=O)CBr)CC[C@@]3(C)[C@]1(C)CC2 (some centres unmarked)"
  studyTarget: "MS"
  valueComparator: "="
  Selectivity index (SI): 0.53
- molecule: "C=C1C[C@H](C#N)C[C@@]2(C)C1CC[C@]1(C)C2CCC2C3C(C(C)C)CC[C@]3(CO)CC[C@]21C (some centres unmarked)"
  studyTarget: "MS"
  valueComparator: "<"
  Selectivity index (SI): 0.38
